- System: Plasmodium falciparum
- test: Antiplasmodial activity against Plasmodium falciparum assessed as inhibition of parasite growth incubated for 72 hrs by resazurin reagent fluorimetric analysis
- Type: functional, organism-based
metric.name: pIC50
Field pIC50 (float): negative decimal logarithm of the concentration in molar.

Q: // query pIC50 value for entry "CC(C)c1n[nH]c2c(=O)[nH]c(Cc3ccccc3)nc12"
Ans: 5.90

###

Entries and their measured remaining at 1 h follow.
- test: Metabolic stability in human liver microsomes assessed as parent compound remaining in phase-II metabolism measured after 1 hr
- Assay type: ADME, Microsome
- assay.setup: read-out: Stability

Below, each entry is followed by its recorded remaining at 1 h result.
smiles.representation	measured
CC(C)c1n[nH]c2c(=O)[nH]c(-c3ccc(F)cc3)nc12	69%
CC(C)(C)c1n[nH]c2c(=O)[nH]c(-c3ccc(F)cc3)nc12	69%

# context switch: different molecule, same remaining at 1 h
Q: // query remaining at 1 h value for entry "O=c1[nH]c(-c2ccc(F)cc2)nc2c(C3CCCC3)n[nH]c12"
Ans: 69%

###

Entries and their measured remaining at 1 h follow.
- test: Metabolic stability in mouse liver microsomes assessed as parent compound remaining in phase-II metabolism measured after 1 hr
- Format: ADME, Microsome
- assay.setup: read-out: Stability
Give just the numeric value; % need not be written.

Below, each entry is followed by its recorded remaining at 1 h result.
smiles.representation	measured
O=c1[nH]c(-c2ccc(F)cc2)nc2c(C3CCCC3)n[nH]c12	69
CC(C)c1n[nH]c2c(=O)[nH]c(-c3ccc(F)cc3)nc12	69

# context switch: different molecule, same remaining at 1 h
Q: // query remaining at 1 h value for entry "CC(C)(C)c1n[nH]c2c(=O)[nH]c(-c3ccc(F)cc3)nc12"
Ans: 69
